Measurement notes: Inhibition of HCV genotype 3a NS3/4A protease using Ac-DE-Dap(QXL520)-EE-Abu-psi-[COO]AS-C(5-FAMsp)-NH2 as substrate preincubated for 1 hr followed by substrate addition
Set-up: species or system Hepatitis C virus subtype 3a
So I've got a bunch of compounds here, and I need their pKi values.
Give bare numbers, as −log10 of the molar value.

Solved entries:
• COc1ccc2nc(Cl)c(O[C@@H]3C[C@H]4C(=O)N[C@]5(C(=O)NS(=O)(=O)C6(C)CC6)C[C@H]5/C=C\CCCCC[C@H](NC(=O)OC(C)(C)C)C(=O)N4C3)nc2c1 = 7.27
• COc1ccc2nc(Cl)c(O[C@@H]3C[C@H]4C(=O)N[C@]5(C(=O)NS(=O)(=O)C6CC6)C[C@H]5/C=C\CCCCC[C@H](NC(=O)OC(C)(C)C)C(=O)N4C3)nc2c1 = 7.17
• COc1ccc2nc(C(F)(F)F)c(O[C@@H]3C[C@H]4C(=O)N[C@]5(C(=O)NS(=O)(=O)C6CC6)C[C@H]5/C=C\CCCCC[C@H](NC(=O)OC(C)(C)C)C(=O)N4C3)nc2c1 = 6.46
• COc1ccc2nc(Cl)c(O[C@@H]3C[C@H]4C(=O)N[C@]5(C(=O)NS(=O)(=O)C6(C)CC6)C[C@H]5/C=C\CCCCC[C@H](NC(=O)OC5CCCC5)C(=O)N4C3)nc2c1 = 7.21

# next compound below
Return the recorded pKi value; entry: COc1ccc2nc(C)c(O[C@@H]3C[C@H]4C(=O)N[C@]5(C(=O)NS(=O)(=O)C6(C)CC6)C[C@H]5/C=C\CCCCC[C@H](NC(=O)OC5CCCC5)C(=O)N4C3)nc2c1 6.92
